The reported measurements were obtained from PubChem BioAssay AID1361.

# methodSummary: blockers of mitochondrial fusion, WT vs mutant – cell-based, chemical genetic, wild-type and mutant, confirmation (AID 1361)
# statedConditions: Cell-based mitochondrial fusion phenotype, imaging, WT cells
Calls of active or inactive are those of the source. The rule behind the calls is not given here.
Reply using exactly one outcome from active, inactive

Study these solved cases before continuing.
CCc1ccccc1N(C1=NCCCS1)S(=O)(=O)c1ccc(C(C)(C)C)cc1	active
O=C(c1ccccc1)c1cc(Cl)ccc1N1C(=O)C=CC1=O	inactive
Cc1cccc(OCC(=O)Nc2nc3ccc([N+](=O)[O-])cc3s2)c1C	inactive
CC1(c2ccc([N+](=O)[O-])cc2)CC(C)(C)N(C(=O)c2ccccc2)c2ccccc21 (stereo not given)	active

Please share the test call associated with CC(C(=O)Nc1ccc(Cl)cc1Cl)N1CC=C(c2ccccc2)CC1 (stereo not given) . active
